Data provenance is paper PMC6631349.

biological target: UGT1A6 (Homo sapiens); details: 50 μM PC components; recombinant human UGT; mean of triplicate
Sequence (P19224 27-532): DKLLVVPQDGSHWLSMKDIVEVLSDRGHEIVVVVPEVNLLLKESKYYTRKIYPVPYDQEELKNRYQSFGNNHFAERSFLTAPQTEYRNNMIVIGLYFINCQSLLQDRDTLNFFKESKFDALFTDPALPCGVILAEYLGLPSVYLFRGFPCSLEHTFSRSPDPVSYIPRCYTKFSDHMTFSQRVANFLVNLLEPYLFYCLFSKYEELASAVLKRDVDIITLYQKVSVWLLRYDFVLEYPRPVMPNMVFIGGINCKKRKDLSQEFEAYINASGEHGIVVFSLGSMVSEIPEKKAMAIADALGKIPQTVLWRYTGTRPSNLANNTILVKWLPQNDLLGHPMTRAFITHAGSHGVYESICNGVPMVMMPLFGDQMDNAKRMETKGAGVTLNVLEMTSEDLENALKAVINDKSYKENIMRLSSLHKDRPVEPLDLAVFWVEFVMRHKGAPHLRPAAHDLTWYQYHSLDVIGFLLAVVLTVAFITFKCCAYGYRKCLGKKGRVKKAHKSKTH
Experimental readout: residual activity 1A6 (%)

* CCCCCCCCC(=O)OC[C@H](COP(=O)([O-])OCC[N+](C)(C)C)OC(=O)CCCCCCCC | 21.4
* CCCCCC(=O)OC[C@H](COP(=O)([O-])OCC[N+](C)(C)C)OC(=O)CCCCC | 67.3
* CCCCCCCCCCCCCCCCCC(=O)OC[C@H](COP(=O)([O-])OCC[N+](C)(C)C)OC(=O)CCCCCCCCCCCCCCCCC | 50.7

* * *

Molecular target: UGT2B7 (Homo sapiens, UniProt P16662)
Sequence (P16662 24-529): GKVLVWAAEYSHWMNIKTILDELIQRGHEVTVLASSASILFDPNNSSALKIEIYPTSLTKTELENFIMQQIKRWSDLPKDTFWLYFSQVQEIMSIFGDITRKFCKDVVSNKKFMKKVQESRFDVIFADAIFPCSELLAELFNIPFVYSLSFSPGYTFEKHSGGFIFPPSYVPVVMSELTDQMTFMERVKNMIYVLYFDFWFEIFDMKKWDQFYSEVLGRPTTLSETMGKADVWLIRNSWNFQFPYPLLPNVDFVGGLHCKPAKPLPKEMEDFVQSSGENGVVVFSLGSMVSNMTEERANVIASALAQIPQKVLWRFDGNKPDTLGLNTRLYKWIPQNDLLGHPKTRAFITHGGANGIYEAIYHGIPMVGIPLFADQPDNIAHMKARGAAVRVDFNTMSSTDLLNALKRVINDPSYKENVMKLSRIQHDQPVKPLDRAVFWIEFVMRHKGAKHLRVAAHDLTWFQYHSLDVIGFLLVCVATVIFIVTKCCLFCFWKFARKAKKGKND
Experiment: UGT2B7 supersomes-catalyzed 4-MU glucuronidation inhibition
Conditions: 50 μM PC components; recombinant human UGT; mean of triplicate
Experimental readout: residual activity 2B7 (%)

• CCCCCCCCCCCCCCCCCCCC(=O)OC[C@H](COP(=O)([O-])OCC[N+](C)(C)C)OC(=O)CCCCCCCCCCCCCCCCCCC [PC 20:0, 20:0] = 88.9
• CCCCCCCCCCCCC(=O)OC[C@H](COP(=O)([O-])OCC[N+](C)(C)C)OC(=O)CCCCCCCCCCCC [PC 13:0, 13:0] = 81.4
• CCCCCCCCCCCCCCC(=O)OC[C@H](COP(=O)([O-])OCC[N+](C)(C)C)OC(=O)CCCCCCCCCCCCCC [PC 15:0, 15:0] = 51.7

* * *

molecular target: UGT2B7 (Homo sapiens); test: UGT2B7 supersomes-catalyzed 4-MU glucuronidation inhibition; settings: 50 μM PC components; recombinant human UGT; mean of triplicate
Experimental readout: residual activity 2B7

- CCCCCCCCCCCCCCCCC(=O)OC[C@H](COP(=O)([O-])OCC[N+](C)(C)C)OC(=O)CCCCCCCCCCCCCCCC: 35.5%
- CCCCCCCC(=O)OC[C@H](COP(=O)([O-])OCC[N+](C)(C)C)OC(=O)CCCCCCC: 71%
- CCCCCCCCCCCC(=O)OC[C@H](COP(=O)([O-])OCC[N+](C)(C)C)OC(=O)CCCCCCCCCCC: 85.8%
- CCCCCCCCCCCCCC(=O)OC[C@H](COP(=O)([O-])OCC[N+](C)(C)C)OC(=O)CCCCCCCCCCCCC: 66.1%

* * *

residual activity 1A9 for assorted molecules
Target: UGT1A9 (Homo sapiens, UniProt O60656)
Sequence (O60656 26-530): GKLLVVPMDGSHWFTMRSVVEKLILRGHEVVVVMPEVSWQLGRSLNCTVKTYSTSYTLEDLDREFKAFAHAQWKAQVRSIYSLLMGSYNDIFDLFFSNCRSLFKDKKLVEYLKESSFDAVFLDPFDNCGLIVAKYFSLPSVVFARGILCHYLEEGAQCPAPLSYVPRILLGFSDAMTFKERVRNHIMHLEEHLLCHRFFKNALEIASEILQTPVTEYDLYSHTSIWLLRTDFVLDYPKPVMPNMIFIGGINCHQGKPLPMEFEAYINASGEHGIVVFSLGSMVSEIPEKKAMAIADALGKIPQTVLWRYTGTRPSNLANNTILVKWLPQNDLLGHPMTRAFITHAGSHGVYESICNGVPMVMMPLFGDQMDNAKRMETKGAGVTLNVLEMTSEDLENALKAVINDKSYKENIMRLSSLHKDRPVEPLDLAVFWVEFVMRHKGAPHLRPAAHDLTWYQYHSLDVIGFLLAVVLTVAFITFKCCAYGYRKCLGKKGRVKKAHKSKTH
Test: UGT1A9 supersomes-catalyzed 4-MU glucuronidation inhibition
Conditions: 50 μM PC components; recombinant human UGT; mean of triplicate
Experimental readout: residual activity 1A9 (%)

• CCCCCCCCC(=O)OC[C@H](COP(=O)([O-])OCC[N+](C)(C)C)OC(=O)CCCCCCCC = 10.7
• CC/C=C\C/C=C\C/C=C\C/C=C\C/C=C\C/C=C\CCC(=O)O[C@H](COC(=O)CCCCCCCCCCCCCCCCC)COP(=O)([O-])OCC[N+](C)(C)C = 94.4
• CCCCCCCCCCCCCCCCCC(=O)OC[C@H](COP(=O)([O-])OCC[N+](C)(C)C)OC(=O)CCCCCCCCCCCCCCCCC = 67.7
• CCCCCCCCCCCCCCCCCCCCC(=O)OC[C@H](COP(=O)([O-])OCC[N+](C)(C)C)OC(=O)CCCCCCCCCCCCCCCCCCCC = 38.1

* * *

Target: UniProtKB O60656
Sequence (O60656 26-530): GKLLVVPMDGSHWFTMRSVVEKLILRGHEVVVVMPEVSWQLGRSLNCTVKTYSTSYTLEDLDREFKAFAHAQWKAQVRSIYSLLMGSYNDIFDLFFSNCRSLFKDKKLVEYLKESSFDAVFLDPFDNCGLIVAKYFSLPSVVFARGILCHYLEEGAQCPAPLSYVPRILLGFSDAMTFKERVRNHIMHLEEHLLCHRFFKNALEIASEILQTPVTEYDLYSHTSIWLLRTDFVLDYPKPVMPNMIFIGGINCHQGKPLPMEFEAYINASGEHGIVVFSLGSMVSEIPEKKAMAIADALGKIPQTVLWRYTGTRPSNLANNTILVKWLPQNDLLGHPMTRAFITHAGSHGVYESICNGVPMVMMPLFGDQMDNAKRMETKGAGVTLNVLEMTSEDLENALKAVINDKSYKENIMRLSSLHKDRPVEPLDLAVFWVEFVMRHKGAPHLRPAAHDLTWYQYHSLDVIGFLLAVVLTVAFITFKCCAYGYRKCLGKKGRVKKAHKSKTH
Test: UGT1A9 supersomes-catalyzed 4-MU glucuronidation inhibition
Settings: 50 μM PC components; recombinant human UGT; mean of triplicate
residual activity 1A9 for assorted molecules
Experimental readout: residual activity 1A9 (%)

- CCCCCC(=O)OC[C@H](COP(=O)([O-])OCC[N+](C)(C)C)OC(=O)CCCCC [PC 6:0, 6:0]: 96.1
- CCCCCCCCCCCCCCC(=O)OC[C@H](COP(=O)([O-])OCC[N+](C)(C)C)OC(=O)CCCCCCCCCCCCCC [PC 15:0, 15:0]: 64.7
- CCCCCCCCCCCCCCCCC(=O)OC[C@H](COP(=O)([O-])OCC[N+](C)(C)C)OC(=O)CCCCCCCCCCCCCCCC [PC 17:0, 17:0]: 65.7
- CCCCCCCCCCCCCCCCCCC(=O)OC[C@H](COP(=O)([O-])OCC[N+](C)(C)C)OC(=O)CCCCCCCCCCCCCCCCCC [PC 19:0, 19:0]: 42.3
- CCCCCCCCCCCCCCCCCCCC(=O)OC[C@H](COP(=O)([O-])OCC[N+](C)(C)C)OC(=O)CCCCCCCCCCCCCCCCCCC [PC 20:0, 20:0]: 65.6
- CCCCCCC(=O)OC[C@H](COP(=O)([O-])OCC[N+](C)(C)C)OC(=O)CCCCCC [PC 7:0, 7:0]: 137.7
- CCCCCCCCCCCC(=O)OC[C@H](COP(=O)([O-])OCC[N+](C)(C)C)OC(=O)CCCCCCCCCCC [PC 12:0, 12:0]: 84.1

* * *

target: UGT1A7 (Homo sapiens); experiment: UGT1A7 supersomes-catalyzed 4-MU glucuronidation inhibition; conditions: 50 μM LPC components; recombinant human UGT; mean of triplicate
Sequence (Q9HAW7 26-530): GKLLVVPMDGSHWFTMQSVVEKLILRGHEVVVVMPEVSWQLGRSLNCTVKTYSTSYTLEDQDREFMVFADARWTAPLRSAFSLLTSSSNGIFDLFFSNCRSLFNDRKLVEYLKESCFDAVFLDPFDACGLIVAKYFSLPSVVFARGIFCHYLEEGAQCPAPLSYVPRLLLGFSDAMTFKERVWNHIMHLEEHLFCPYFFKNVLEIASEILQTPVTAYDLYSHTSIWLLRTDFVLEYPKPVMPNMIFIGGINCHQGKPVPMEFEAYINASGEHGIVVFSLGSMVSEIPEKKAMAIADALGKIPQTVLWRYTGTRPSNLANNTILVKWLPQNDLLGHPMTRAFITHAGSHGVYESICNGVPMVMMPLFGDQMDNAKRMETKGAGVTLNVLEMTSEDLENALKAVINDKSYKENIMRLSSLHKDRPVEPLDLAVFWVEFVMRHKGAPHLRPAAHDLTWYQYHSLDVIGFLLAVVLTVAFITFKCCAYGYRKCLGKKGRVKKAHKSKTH
Experimental readout: residual activity 1A7 (%)

• CCCCCCCC(=O)OCC(O)COP(=O)([O-])OCC[N+](C)(C)C (stereo not drawn) = 133.3
• CCCCCCCCCCCCC(=O)OC[C@@H](O)COP(=O)([O-])OCC[N+](C)(C)C = 120.1
• CCCCCCCCCCCCCC(=O)OC[C@@H](O)COP(=O)([O-])OCC[N+](C)(C)C = 153.6
• CCCCCCCCC(=O)OC[C@@H](O)COP(=O)([O-])OCC[N+](C)(C)C = 134.9
• CCCCCCCCCCCCCCCCC(=O)OC[C@@H](O)COP(=O)([O-])OCC[N+](C)(C)C = 164.3
• CCCCCCCCCC(=O)OC[C@@H](O)COP(=O)([O-])OCC[N+](C)(C)C = 139.8
• CCCCCCC(=O)OCC(O)COP(=O)([O-])OCC[N+](C)(C)C (stereo not drawn) = 138.3
• CCCCCCCCCCCCCCCCCC(=O)OC[C@@H](O)COP(=O)([O-])OCC[N+](C)(C)C = 133.4
• CCCCCC(=O)OC[C@@H](O)COP(=O)([O-])OCC[N+](C)(C)C = 130.6
• CCCCCCCCCCCCCCC(=O)OC[C@@H](O)COP(=O)([O-])OCC[N+](C)(C)C = 156.2
• CCCCCCCCCCCC(=O)OC[C@@H](O)COP(=O)([O-])OCC[N+](C)(C)C = 138.6
• CCCCCCCCCCC(=O)OC[C@@H](O)COP(=O)([O-])OCC[N+](C)(C)C = 149.9
